Taken from patent US4791215A.

Listed below: percentage variation of latency of pain sensation values for each entry.
Test system: morphine analgesia
assayMethodText: Increase in analgesia of morphine, Tail Flick Test (Experiment 1)
Assay type: in vivo, rats
appliedConditions: 90'; compound 10 mg/kg i.p. + morphine 2 mg/kg
valueType: percentage variation of latency of pain sensation (%)

• CCCCN(CCCC)C(=O)C(CCC(=O)O)NC(=O)c1cc(Cl)cc(Cl)c1 (centres unmarked) = 40.4
• CCCN(CCC)C(=O)C(CCC(=O)O)NC(=O)c1c(C)cc(C)cc1C (centres unmarked) = 46.6
• CCCCCN(CCCCC)C(=O)C(CCC(=O)O)NC(=O)c1ccc(Cl)c(Cl)c1 (centres unmarked) = 72.6
• CCCCCN(CCCCC)C(=O)C(CCC(=O)O)NC(=O)c1ccc(Cl)cc1 (centres unmarked) = 44.2
• CCCN(CCC)C(=O)C(CCC(=O)O)NC(=O)c1ccc(F)cc1 (centres unmarked) = 11.6
• CCCN(CCC)C(=O)C(CCC(=O)O)NC(=O)c1cccc(Cl)c1 (centres unmarked) = 57.3
• CCCCN(CCCC)C(=O)C(CCC(=O)O)NC(=O)c1cc(Cl)c(Cl)c(Cl)c1 (centres unmarked) = 18.7
• O=C(O)CCC(NC(=O)c1ccc(Cl)c(Cl)c1)C(=O)N1CCCCC1 (centres unmarked) = 4.9
• CCCNC(=O)C(CCC(=O)O)NC(=O)c1ccc(C)c(C)c1 (centres unmarked) = 80.4
• CCCCNC(=O)C(CCC(=O)O)NC(=O)c1ccc(C)c(C)c1 (centres unmarked) = 61.4
• CCCN(CCC)C(=O)C(CCC(=O)O)NC(=O)c1cc(C)cc(C)c1 (centres unmarked) = 49.5
• CCCCc1ccc(C(=O)NC(CCC(=O)O)C(=O)N(CCC)CCC)cc1 (centres unmarked) = 12.4
• N#Cc1cccc(C(=O)NC(CCC(=O)N2CCCCC2)C(=O)O)c1 (centres unmarked) = 77.5
• CCCN(CCC)C(=O)C(CCC(=O)O)NC(=O)c1ccc(Cl)c(Cl)c1 (centres unmarked) = 40.1
• CCCCN(CCCC)C(=O)CCC(NC(=O)c1ccc(Br)cc1)C(=O)O (centres unmarked) = 45.3
• CC(C)c1ccc(C(=O)NC(CCC(=O)O)C(=O)NC2CCCCC2)cc1 (centres unmarked) = 65.8
• CCCN(CCC)C(=O)CCC(NC(=O)c1ccc(C)c(C)c1)C(=O)O (centres unmarked) = 43.5
• CCCCN(CCCC)C(=O)CCC(NC(=O)c1cccc(C#N)c1)C(=O)O (centres unmarked) = 75.5
• CCCN(CCC)C(=O)C(CCC(=O)O)NC(=O)c1ccc(C)cc1C (centres unmarked) = 52.2
• O=C(NC(CCC(=O)N1CCOCC1)C(=O)O)c1ccc(Br)cc1 (centres unmarked) = 28.2
• CCCCN(CCCC)C(=O)C(CCC(=O)O)NC(=O)c1ccc(Cl)c(Cl)c1 (racemic) = 38.2
• CCCCNC(=O)C(CCC(=O)O)NC(=O)c1cccc(C#N)c1 (centres unmarked) = 54.9
• N#Cc1cccc(C(=O)NC(CC(=O)O)C(=O)NC2CCCCC2)c1 (centres unmarked) = 58.7
• CCCCNC(=O)CC(NC(=O)c1ccc(Cl)c(Cl)c1)C(=O)O (centres unmarked) = 32.9
• CCCCN(CCCC)C(=O)C(CCC(=O)O)NC(=O)c1ccc(I)cc1 (centres unmarked) = 50.3
• CCCCN(CCCC)C(=O)C(CCC(=O)O)NC(=O)c1ccc(Cl)cc1Cl (centres unmarked) = 63.2
• CCCN(CCC)C(=O)C(CCC(=O)O)NC(=O)c1cc(I)c(I)c(I)c1 (centres unmarked) = 35.6
• Cc1ccc(C(=O)NC(CCC(=O)O)C(=O)N2CCOCC2)cc1C (centres unmarked) = 48.5
• CCCCN(CCCC)C(=O)C(CCC(=O)O)NC(=O)c1cccc(C)c1 (centres unmarked) = 12.6
• CCCN(CCC)C(=O)C(CCC(=O)O)NC(=O)c1ccc(C)cc1 (centres unmarked) = 6.0
• CCCCCCN(CCCCCC)C(=O)C(CCC(=O)O)NC(=O)c1ccc(Cl)c(Cl)c1 (centres unmarked) = 60.4
• CCCNC(=O)CCC(NC(=O)c1ccc(C)c(C)c1)C(=O)O (centres unmarked) = 23.3
• CCCN(CCC)C(=O)C(CCC(=O)O)NC(=O)c1cc(F)cc(F)c1 (centres unmarked) = 59.2
• CCCc1ccc(C(=O)NC(CCC(=O)O)C(=O)N(CC)CC)cc1 (centres unmarked) = 7.4
• CCCN(CCC)C(=O)C(CCC(=O)O)NC(=O)c1cccc(C#N)c1 (centres unmarked) = 51.2
